# targetDesc: Prostaglandin G/H synthase 1 (Ovis aries)
# Sequence (P05979 whole entry): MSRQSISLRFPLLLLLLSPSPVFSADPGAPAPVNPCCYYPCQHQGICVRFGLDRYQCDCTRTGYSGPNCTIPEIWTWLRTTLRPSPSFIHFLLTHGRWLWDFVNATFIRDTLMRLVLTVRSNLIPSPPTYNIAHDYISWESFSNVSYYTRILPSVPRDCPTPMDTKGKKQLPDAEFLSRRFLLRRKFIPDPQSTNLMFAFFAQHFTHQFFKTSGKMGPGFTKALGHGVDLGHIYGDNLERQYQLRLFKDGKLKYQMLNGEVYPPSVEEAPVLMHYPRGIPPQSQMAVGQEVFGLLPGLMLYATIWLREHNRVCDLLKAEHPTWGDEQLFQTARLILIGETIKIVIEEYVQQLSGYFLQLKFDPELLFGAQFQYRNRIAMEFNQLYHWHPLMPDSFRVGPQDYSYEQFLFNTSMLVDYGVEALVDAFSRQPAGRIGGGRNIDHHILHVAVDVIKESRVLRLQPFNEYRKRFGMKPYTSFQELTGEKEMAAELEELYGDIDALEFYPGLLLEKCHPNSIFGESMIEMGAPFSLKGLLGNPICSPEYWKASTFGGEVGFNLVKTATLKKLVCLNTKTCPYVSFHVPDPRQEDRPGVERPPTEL
Reported IC50 against Prostaglandin G/H synthase 1 (Ovis aries), gathered from multiple publications, appears below.

- molecule: "COC(=O)[C@@H](N)Cc1cn(-c2nc(Cl)nc(Nc3ccc(N4CCOCC4=O)cc3)n2)c2ccccc12"
  targetDesc: "Prostaglandin G/H synthase 1 (Ovis aries)"
  obsValue: "> 10 µM"
- molecule: "CN(C)c1ccc(C2=C(c3ccc(F)cc3)COC2=O)cc1"
  targetDesc: "Prostaglandin G/H synthase 1 (Ovis aries)"
  obsValue: "> 25 µM"
- molecule: "CCOC(=O)[C@H](OCc1cnnn1[C@H](Cc1ccc(O)cc1)C(=O)OC)[C@@H](OCc1cnnn1[C@@H](Cc1ccc(O)cc1)C(=O)OC)C(=O)OCC"
  targetDesc: "Prostaglandin G/H synthase 1 (Ovis aries)"
  obsValue: "> 10 µM"
- molecule: "COc1ccc2cc(C(C)c3n[nH]c(=S)n3/N=C/c3cccc(Br)c3)ccc2c1 (stereo unspecified)"
  targetDesc: "Prostaglandin G/H synthase 1 (Ovis aries)"
  obsValue: "> 25 µM"
- molecule: "CS(=O)(=O)c1ccc(-n2ccc3ccccc32)cc1"
  targetDesc: "Prostaglandin G/H synthase 1 (Ovis aries)"
  obsValue: "78.7 µM"

## Input Consider the molecule shown here: O=C1COCCN1c1ccc(Nc2nc(Cl)nc(N3CCOCC3)n2)cc1 What is its recorded IC50?
## Output > 10 µM

## Input Consider the molecule shown here: COc1ccc2c(c1)c(CC(=O)NCCCCCCO)c(C)n2C(=O)c1ccc(Cl)cc1 What is its recorded IC50?
## Output > 63 µM

## Input Consider the molecule shown here: COc1ccc2c(c1)c(CCNC(C)=O)cn2C(=O)c1ccc(Cl)cc1 What is its recorded IC50?
## Output > 60 µM

## Input Consider the molecule shown here: CC[C@H](C)[C@H](Nc1nc(Cl)nc(Nc2ccc(N3CCOCC3=O)cc2)n1)C(=O)OC What is its recorded IC50?
## Output > 10 µM

## Input Consider the molecule shown here: CCCCCCC[S+]([O-])c1ccccc1OC(C)=O (stereo unspecified) What is its recorded IC50?
## Output > 40 µM

## Input Consider the molecule shown here: Cn1cc(/C=C/C(=O)c2ccc(S(C)(=O)=O)cc2)c2ccccc21 What is its recorded IC50?
## Output > 29.5 µM
